Where these numbers come from: ChEMBL document CHEMBL4433216

- procedure-text: Solubility in pH 7 ammonium acetate buffer by LC-MS/MS analysis
- Format: physicochemical
endpoint: solubility (µM)
Give just the number in µM; leave the unit off.

stdin: Entry CC1c2cccc(C(N)=O)c2C(=O)N1C1CCN(C2CCCCC2)CC1 (racemic) : reported solubility = ?
stdout: 140

====

Measured pKd values are reported for all entries that follow.
- system-under-test: Poly [ADP-ribose] polymerase 1 (Homo sapiens, UniProt P09874)
- Sequence (P09874 whole entry): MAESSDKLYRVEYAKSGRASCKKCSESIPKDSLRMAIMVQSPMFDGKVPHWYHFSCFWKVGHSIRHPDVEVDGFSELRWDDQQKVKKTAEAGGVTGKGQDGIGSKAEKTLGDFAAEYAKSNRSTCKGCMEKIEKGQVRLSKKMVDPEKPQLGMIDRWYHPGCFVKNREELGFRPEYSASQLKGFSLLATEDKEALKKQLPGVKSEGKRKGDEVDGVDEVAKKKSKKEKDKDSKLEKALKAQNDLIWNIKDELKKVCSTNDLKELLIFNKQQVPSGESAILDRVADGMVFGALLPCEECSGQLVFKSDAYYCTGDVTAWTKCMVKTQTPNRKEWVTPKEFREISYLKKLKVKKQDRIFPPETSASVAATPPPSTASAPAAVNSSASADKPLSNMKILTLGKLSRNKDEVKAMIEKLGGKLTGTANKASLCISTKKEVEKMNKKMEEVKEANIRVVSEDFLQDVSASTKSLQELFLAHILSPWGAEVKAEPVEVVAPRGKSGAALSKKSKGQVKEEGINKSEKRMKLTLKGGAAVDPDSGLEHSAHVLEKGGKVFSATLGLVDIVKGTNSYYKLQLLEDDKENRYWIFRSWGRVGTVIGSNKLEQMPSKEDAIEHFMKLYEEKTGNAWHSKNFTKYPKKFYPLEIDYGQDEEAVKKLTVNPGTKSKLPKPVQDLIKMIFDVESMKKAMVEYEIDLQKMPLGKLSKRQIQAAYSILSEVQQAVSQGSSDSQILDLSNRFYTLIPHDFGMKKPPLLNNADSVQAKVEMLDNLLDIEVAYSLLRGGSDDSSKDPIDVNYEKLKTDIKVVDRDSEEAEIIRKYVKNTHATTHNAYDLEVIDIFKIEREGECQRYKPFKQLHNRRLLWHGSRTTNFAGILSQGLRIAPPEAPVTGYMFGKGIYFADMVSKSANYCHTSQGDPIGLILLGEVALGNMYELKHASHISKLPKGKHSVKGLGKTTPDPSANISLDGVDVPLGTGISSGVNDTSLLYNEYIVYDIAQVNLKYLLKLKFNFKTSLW
- procedure-text: Displacement of fluorescent probe from human recombinant full length His-tagged PARP1 by fluorescent polarization assay
pKd: −log10 of the molar value.

Example cases with answers are listed next.
stdin: Entry CC1c2cccc(C(N)=O)c2C(=O)N1C1CCN(C2CCCCC2)CC1 (racemic) : reported pKd = ?
stdout: > 7.52

stdin: Entry C[C@@H]1c2cccc(C(N)=O)c2C(=O)N1C1CCN(C2CCCCC2)CC1 : reported pKd = ?
stdout: 5.88

Next molecule, please.
stdin: Entry C[C@H]1c2cccc(C(N)=O)c2C(=O)N1C1CCN(C2CCCCC2)CC1 : reported pKd = ?
stdout: > 7.52
